The measurements presented in this section are drawn from patent US10670605B2.

Target: cysteines in MDA-MB-231 and Ramos cells (Homo sapiens)
Assay: Competitive isoTOP-ABPP in situ (fragment-treated cells)
Format: cell-based
Settings: 200 μM, insitu, 231
measure.name: isoTOP-ABPP ratio P04406_C152
Quick one: just the number, no unit, thanks!

The cases that follow already have their isoTOP-ABPP ratio P04406_C152 on record.
molecule: C=CC(=O)Nc1cc(F)c(N2CCN(C(=O)OC(C)(C)C)CC2)c(F)c1
measure.name: isoTOP-ABPP ratio P04406_C152
endpoint.value: 0.9
--
molecule: CC(C)CCOCCNC(=O)CCl
measure.name: isoTOP-ABPP ratio P04406_C152
endpoint.value: 0.5
--
molecule: O=C(CCl)NC12CC3CC(CC(C3)C1)C2
measure.name: isoTOP-ABPP ratio P04406_C152
endpoint.value: 1.3

Given the molecule Cc1ccc(C=C(C#N)C(=O)NCCN2CCOCC2)cc1 , write its reported isoTOP-ABPP ratio P04406_C152. 0.6

Given the molecule O=C(CCl)Nc1cccc2ncccc12 , write its reported isoTOP-ABPP ratio P04406_C152. 1.0

---

Target: XPO1 C34 (O14980) (Homo sapiens)
Sequence (O14980 whole entry): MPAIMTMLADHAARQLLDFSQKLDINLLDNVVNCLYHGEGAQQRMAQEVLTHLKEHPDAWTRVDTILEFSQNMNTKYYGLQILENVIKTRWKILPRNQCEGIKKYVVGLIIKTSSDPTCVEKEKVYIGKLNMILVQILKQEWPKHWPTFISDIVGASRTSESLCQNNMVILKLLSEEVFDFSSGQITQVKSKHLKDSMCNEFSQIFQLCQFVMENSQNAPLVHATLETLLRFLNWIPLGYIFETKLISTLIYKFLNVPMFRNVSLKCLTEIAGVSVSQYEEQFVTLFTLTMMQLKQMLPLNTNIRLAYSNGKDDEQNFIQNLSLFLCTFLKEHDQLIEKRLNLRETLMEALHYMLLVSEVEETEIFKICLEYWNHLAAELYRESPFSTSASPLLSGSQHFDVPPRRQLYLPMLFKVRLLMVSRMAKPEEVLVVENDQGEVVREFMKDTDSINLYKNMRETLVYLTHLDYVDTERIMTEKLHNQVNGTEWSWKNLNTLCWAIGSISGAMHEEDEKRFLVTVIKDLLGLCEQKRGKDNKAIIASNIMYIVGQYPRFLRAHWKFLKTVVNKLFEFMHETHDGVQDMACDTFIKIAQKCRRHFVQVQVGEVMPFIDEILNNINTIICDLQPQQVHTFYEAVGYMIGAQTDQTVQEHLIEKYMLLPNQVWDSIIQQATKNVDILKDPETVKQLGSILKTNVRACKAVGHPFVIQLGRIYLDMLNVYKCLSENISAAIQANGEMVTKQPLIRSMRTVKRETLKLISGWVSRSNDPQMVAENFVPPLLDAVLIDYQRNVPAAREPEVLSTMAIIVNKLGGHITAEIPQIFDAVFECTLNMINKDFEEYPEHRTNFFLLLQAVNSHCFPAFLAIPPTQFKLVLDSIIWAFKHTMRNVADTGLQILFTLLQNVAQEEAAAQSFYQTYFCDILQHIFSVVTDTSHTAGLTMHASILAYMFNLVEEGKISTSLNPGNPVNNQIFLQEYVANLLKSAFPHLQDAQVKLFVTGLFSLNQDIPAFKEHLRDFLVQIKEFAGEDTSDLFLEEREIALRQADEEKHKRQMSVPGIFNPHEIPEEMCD
Assay: Competitive isoTOP-ABPP, cell lysates
Assay type: binding
Conditions: 500 μM, invitro, 231
Experimental: TEV digests were pressure loaded onto a 250 μm (inner diameter) fused silica capillary column packed with C18 resin (Aqua 5 μm, Phenomenex). The samples were analyzed by multidimensional liquid chromatography tandem mass spectrometry (MudPIT), using an LTQ-Velos Orbitrap mass spectrometer (Thermo Scientific) coupled to an Agilent 1200-series quaternary pump. […]
measure.name: isoTOP-ABPP ratio, O14980_C34
Quick one: just the number, no unit, thanks!

compound: O=C(CCl)NCCc1c[nH]c2ccccc12
isoTOP-ABPP ratio, O14980_C34: 0.9

compound: Cn1cc(S(=O)(=O)N2CCOCC2)cc1C(=O)NC(=O)CCl
isoTOP-ABPP ratio, O14980_C34: 1.2

Now consider a different compound.
Given the compound CNS(=O)(=O)C=Cc1ccc2c(ccn2Cc2ccccc2)c1 , write its reported isoTOP-ABPP ratio, O14980_C34. 1.2

---

Target: cysteines in MDA-MB-231 and Ramos cells (Homo sapiens)
Assay: Competitive isoTOP-ABPP in situ (fragment-treated cells)
Assay type: cell-based
Settings: 200 μM, insitu, 231
Decision: isoTOP-ABPP ratio Q93009_C223 compared against 2; not below it gives 1, below it gives 0.

molecule: CC1CCc2ccccc2N1C(=O)CCl (centres unmarked)
study.system: cysteines in MDA-MB-231 and Ramos cells (Homo sapiens)
label: 1

API: the following record is the query input.
In plain terms: is recorded isoTOP-ABPP ratio Q93009_C223 at least 2 for O=C(CCl)NC(=O)NC12CC3CC(CC(C3)C1)C2 ? 1

---

Molecular target: cysteines in MDA-MB-231 and Ramos cells (Homo sapiens)
Experiment: Competitive isoTOP-ABPP in situ (fragment-treated cells)
Assay type: cell-based
Conditions: 200 μM, insitu, 231
measure.name: isoTOP-ABPP ratio Q9BQ69_C186
Quick one: just the number, no unit, thanks!

The cases that follow already have their isoTOP-ABPP ratio Q9BQ69_C186 on record.
compound: O=C(CCl)NC(=O)NC12CC3CC(CC(C3)C1)C2 [compound 12]
isoTOP-ABPP ratio Q9BQ69_C186: 2.7

compound: O=C(CCl)NC12CC3CC(CC(C3)C1)C2 [compound 21]
isoTOP-ABPP ratio Q9BQ69_C186: 1.4

compound: Cc1ccc(C=C(C#N)C(=O)NCCN2CCOCC2)cc1 [compound 41]
isoTOP-ABPP ratio Q9BQ69_C186: 1.2

Now consider a different compound.
Given the compound C=CC(=O)Nc1cc(F)c(N2CCN(C(=O)OC(C)(C)C)CC2)c(F)c1 [compound 38] , write its reported isoTOP-ABPP ratio Q9BQ69_C186. 3.6

---

Target: ACAT1 C126 (P24752) (Homo sapiens, UniProt P24752)
Sequence (P24752 34-427): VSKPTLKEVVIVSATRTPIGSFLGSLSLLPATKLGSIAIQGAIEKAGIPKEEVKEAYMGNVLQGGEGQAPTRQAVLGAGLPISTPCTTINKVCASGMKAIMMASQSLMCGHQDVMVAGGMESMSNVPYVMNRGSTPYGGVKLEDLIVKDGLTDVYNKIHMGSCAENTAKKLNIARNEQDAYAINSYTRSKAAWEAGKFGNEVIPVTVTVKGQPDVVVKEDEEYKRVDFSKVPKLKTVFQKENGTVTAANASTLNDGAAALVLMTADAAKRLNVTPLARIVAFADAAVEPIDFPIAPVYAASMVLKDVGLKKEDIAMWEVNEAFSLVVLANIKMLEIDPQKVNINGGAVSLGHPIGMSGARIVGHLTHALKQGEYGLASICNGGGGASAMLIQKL
Assay: Competitive isoTOP-ABPP, cell lysates
Format: binding
Details: 500 μM, invitro, 231
compounds and their reported isoTOP-ABPP ratio, P24752_C126

compound: C=CC(=O)N(c1ccccc1)c1ccc(Br)cc1 [compound 5]
study.system: ACAT1 C126 (P24752) (Homo sapiens, UniProt P24752)
isoTOP-ABPP ratio, P24752_C126: 0.9

Given the compound CNS(=O)(=O)C=Cc1ccc2c(ccn2Cc2ccccc2)c1 [compound 6] , write its reported isoTOP-ABPP ratio, P24752_C126. 0.9

---

Target: cysteines in MDA-MB-231 and Ramos cells (Homo sapiens)
Assay: Competitive isoTOP-ABPP in situ (fragment-treated cells)
Type: cell-based
Conditions: 200 μM, insitu, 231
measure.name: isoTOP-ABPP ratio P68366_C54
Quick one: just the number, no unit, thanks!

Report measured isoTOP-ABPP ratio P68366_C54 on cysteines in MDA-MB-231 and Ramos cells (Homo sapiens); entry: C=CC(=O)Nc1cc(F)c(N2CCN(C(=O)OC(C)(C)C)CC2)c(F)c1 [compound 38] 2.0

Report measured isoTOP-ABPP ratio P68366_C54 on cysteines in MDA-MB-231 and Ramos cells (Homo sapiens); entry: O=C(CCl)N1CCN(S(=O)(=O)c2ccccc2F)CC1 [compound 10] 7.9

Report measured isoTOP-ABPP ratio P68366_C54 on cysteines in MDA-MB-231 and Ramos cells (Homo sapiens); entry: O=C(CCl)NC12CC3CC(CC(C3)C1)C2 [compound 21] 0.8

Report measured isoTOP-ABPP ratio P68366_C54 on cysteines in MDA-MB-231 and Ramos cells (Homo sapiens); entry: CC(C)CCOCCNC(=O)CCl [compound 27] 0.3

---

Target: WT-IDH1 (C269) (Homo sapiens, UniProt O75874)
Construct: Full length cDNAs encoding for IDH1 (Open Biosystems, Clone ID: 3880331) and IMPDH2; His6 (C)
Sequence (O75874 whole entry): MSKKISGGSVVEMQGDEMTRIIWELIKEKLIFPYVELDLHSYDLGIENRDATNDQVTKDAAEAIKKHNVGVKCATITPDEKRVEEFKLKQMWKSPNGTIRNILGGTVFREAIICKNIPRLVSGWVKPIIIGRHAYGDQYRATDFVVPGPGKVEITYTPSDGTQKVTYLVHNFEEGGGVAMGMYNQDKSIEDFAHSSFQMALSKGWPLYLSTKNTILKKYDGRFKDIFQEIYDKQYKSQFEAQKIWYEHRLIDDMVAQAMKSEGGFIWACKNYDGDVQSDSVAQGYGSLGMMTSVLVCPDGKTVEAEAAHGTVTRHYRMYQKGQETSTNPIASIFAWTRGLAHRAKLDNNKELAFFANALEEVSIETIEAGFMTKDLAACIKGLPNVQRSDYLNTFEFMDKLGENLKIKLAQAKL
Assay: Blockade of IA-rhodamine labeling of WT-IDH1
Conditions: 2 μM protein in MDA-MB-231 lysate
measure.name: pIC50
The quantity pIC50 is defined as the negative base-10 logarithm of the molar concentration.

Given the compound O=C(CCl)N1CCC(C(O)(c2ccccc2)c2ccccc2)CC1 [compound 20] , write its reported pIC50. 5.54

---

Target: XPO1 C34 (O14980) (Homo sapiens)
Assay: Competitive isoTOP-ABPP, cell lysates
Assay type: binding
Details: 500 μm, in-vitro_ramos_231
measure.name: isoTOP-ABPP reactivity ratio, O14980_C34
Quick one: just the number, no unit, thanks!

The cases that follow already have their isoTOP-ABPP reactivity ratio, O14980_C34 on record.
compound: Cc1ccc(C=C(C#N)C(=O)NCCN2CCOCC2)cc1
endpoint.value: 3.1
--
compound: CC(C)(C)c1cc(NC(=O)CCl)on1
endpoint.value: 1.2
--
compound: COC(=O)C1Cc2ccccc2CN1C(=O)CCl (stereo not shown)
endpoint.value: 1.3

Given the compound O=C(CCl)Nc1ccccc1C1CCCCCC1 , write its reported isoTOP-ABPP reactivity ratio, O14980_C34. 0.8

---

Biological target: cysteines in MDA-MB-231 and Ramos cells (Homo sapiens)
Assay: Competitive isoTOP-ABPP in situ (fragment-treated cells)
Format: cell-based
Settings: 200 μM, insitu, 231
compounds and their reported isoTOP-ABPP ratio Q15013_C124
Quick one: just the number, no unit, thanks!

The cases that follow already have their isoTOP-ABPP ratio Q15013_C124 on record.
compound: COc1ccccc1OCCNC(=O)CCl
endpoint.value: 1.0
//
compound: CC1CCc2ccccc2N1C(=O)CCl (stereo not shown)
endpoint.value: 20.0
//
compound: CC(C)CCOCCNC(=O)CCl
endpoint.value: 1.0

Now consider a different compound.
Given the compound O=C(CCl)Nc1cccc2ncccc12 , write its reported isoTOP-ABPP ratio Q15013_C124. 1.2

---

Target: cysteines in MDA-MB-231 and Ramos cells (Homo sapiens)
Assay: Competitive isoTOP-ABPP in situ (fragment-treated cells)
Format: cell-based
Conditions: 200 μM, insitu, 231
compounds and their reported isoTOP-ABPP ratio Q9Y676_C128
Quick one: just the number, no unit, thanks!

The cases that follow already have their isoTOP-ABPP ratio Q9Y676_C128 on record.
compound: O=C(CCl)NC(=O)NC12CC3CC(CC(C3)C1)C2 [compound 12]
isoTOP-ABPP ratio Q9Y676_C128: 1.4

compound: O=C(CCl)NC12CC3CC(CC(C3)C1)C2 [compound 21]
isoTOP-ABPP ratio Q9Y676_C128: 1.5

compound: CC1CCc2ccccc2N1C(=O)CCl (stereo not shown) [compound 45]
isoTOP-ABPP ratio Q9Y676_C128: 2.0

compound: C=CC(=O)Nc1cc(F)c(N2CCN(C(=O)OC(C)(C)C)CC2)c(F)c1 [compound 38]
isoTOP-ABPP ratio Q9Y676_C128: 1.0

compound: O=C(CCl)N1CCN(S(=O)(=O)c2ccccc2F)CC1 [compound 10]
isoTOP-ABPP ratio Q9Y676_C128: 2.9

Given the compound CC(C)CCOCCNC(=O)CCl [compound 27] , write its reported isoTOP-ABPP ratio Q9Y676_C128. 1.0

Given the compound O=C(CCl)Nc1cccc2ncccc12 [compound 51] , write its reported isoTOP-ABPP ratio Q9Y676_C128. 1.0
